tgt: androgen receptor (AR) (Homo sapiens, UniProt P10275, T878A)
Construct: host or cells: LNCaP human prostate cancer cells
Sequence (P10275 1-920 T878A): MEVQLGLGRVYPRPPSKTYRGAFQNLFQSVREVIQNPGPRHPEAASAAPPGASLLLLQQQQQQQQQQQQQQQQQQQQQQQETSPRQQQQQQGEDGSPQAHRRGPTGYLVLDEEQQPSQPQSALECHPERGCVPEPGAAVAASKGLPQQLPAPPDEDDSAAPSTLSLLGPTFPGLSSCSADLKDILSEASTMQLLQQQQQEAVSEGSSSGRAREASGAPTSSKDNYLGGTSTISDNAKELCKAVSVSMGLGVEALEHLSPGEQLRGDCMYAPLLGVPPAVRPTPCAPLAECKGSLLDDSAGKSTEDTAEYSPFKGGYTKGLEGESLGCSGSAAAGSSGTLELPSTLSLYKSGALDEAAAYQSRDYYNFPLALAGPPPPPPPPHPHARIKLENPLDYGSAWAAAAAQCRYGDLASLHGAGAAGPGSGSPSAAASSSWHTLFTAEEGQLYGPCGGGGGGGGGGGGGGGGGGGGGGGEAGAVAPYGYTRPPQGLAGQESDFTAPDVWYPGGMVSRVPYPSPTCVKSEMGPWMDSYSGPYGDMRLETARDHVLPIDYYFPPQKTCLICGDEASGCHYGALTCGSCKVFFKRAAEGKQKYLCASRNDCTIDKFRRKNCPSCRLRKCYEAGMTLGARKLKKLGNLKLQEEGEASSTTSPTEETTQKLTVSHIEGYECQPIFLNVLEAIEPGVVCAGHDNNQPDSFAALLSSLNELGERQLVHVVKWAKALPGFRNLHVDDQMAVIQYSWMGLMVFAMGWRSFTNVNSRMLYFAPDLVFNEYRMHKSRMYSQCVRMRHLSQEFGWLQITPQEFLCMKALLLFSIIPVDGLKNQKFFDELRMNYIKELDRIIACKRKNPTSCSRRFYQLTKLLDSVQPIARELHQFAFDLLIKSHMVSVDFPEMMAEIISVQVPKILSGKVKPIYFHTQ
procedure_text: Degradation activity on androgen receptor in LNCaP cells (AR ELISA)
Assay type: cell-based
test_context: 0.1 nM R1881, 24 hours, read-out: LNCaP DC50
Readings of DC50 for the listed molecules
Give your result in nM as a bare value.

Example entries begin here.
molecule | DC50 (nM)
C[C@H]1CC2(CCN(c3ccc(C(=O)N4CCC5(CC4)CC(N4CCN(c6ccc(C7CCC(=O)NC7=O)cc6)CC4)C5)cc3)CC2)CN1c1ccc(C#N)c(Cl)c1 (some centres unmarked) [Example 34] | 5
C[C@H]1CC2(CCN(c3ccc(C(=O)N4CCC5(CC4)CC(N4CCN(c6ccc(N7CCC(=O)NC7=O)cc6)CC4)C5)cn3)CC2)CN1c1ccc(C#N)c(Cl)c1 [Example 33] | 2.5
C[C@H]1CC2(CCN(c3ccc(C(=O)N4CCC(CN5CCN(c6cccc(NC7CCC(=O)NC7=O)c6)CC5)CC4)cn3)CC2)CN1c1ccc(C#N)c(Cl)c1 (some centres unmarked) [Example 18] | 5.8
C[C@H]1CC2(CCN(c3ccc(C(=O)N4CCC5(CC4)CC(N4CCN(c6cccc(N7CCC(=O)NC7=O)c6)CC4)C5)cc3)CC2)CN1c1ccc(C#N)c(Cl)c1 [Example 35] | 5.2

# query: DC50 | item C[C@H]1CC2(CCN(c3ccc(C(=O)N4CCC(CN5CCN(c6ccc(NC7CCC(=O)NC7=O)cc6)CC5)CC4)cc3)CC2)CN1c1ccc(C#N)c(Cl)c1 (some centres unmarked) [Example 25] | system: androgen receptor (AR) (Homo sapiens, UniProt P10275, T878A) 1.8

====

tgt: androgen receptor (AR) (Homo sapiens, UniProt P10275, T878A)
Construct: host or cells: LNCaP human prostate cancer cells
procedure_text: Degradation activity on androgen receptor in LNCaP cells (AR ELISA)
Format: cell-based
test_context: read-out: LNCaP DC50, 0.1 nM R1881, 24 hours
DC50 vs 5 nM: less than gives True; not less than gives False.

Answered cases to consult:
molecule | assigned_class
C[C@H]1CC2(CCN(C(=O)c3ccc(SC4CCN(C5CN(c6ccc(C(=O)NC7CCC(=O)NC7=O)c(F)c6)C5)CC4)nc3)CC2)CN1c1ccc(C#N)c(Cl)c1 (some centres unmarked) | False
C[C@H]1CC2(CCN(c3ccc(C(=O)N4CCC(CN5CCN(c6cccc(NC7CCC(=O)NC7=O)c6)CC5)CC4)c(F)c3)CC2)CN1c1ccc(C#N)c(Cl)c1 (some centres unmarked) | True
C[C@H]1CC2(CCN(c3ccc(C(=O)N4CCC(N5CCN(c6ccc(C(=O)NC7CCC(=O)NC7=O)c(F)c6)CC5)CC4)cc3)CC2)CN1c1ccc(C#N)c(Cl)c1 (some centres unmarked) | False

Consider the molecule C[C@H]1CC2(CCN(c3cnc(C(=O)N4CCC(CN5CCN(c6cccc(NC7CCC(=O)NC7=O)c6)CC5)CC4)cn3)CC2)CN1c1ccc(C#N)c(Cl)c1 (some centres unmarked) . Is its DC50 strictly less than 5 nM? True

====

Below, each of the molecules is paired with its reported Dmax value.
tgt: androgen receptor (AR) (Homo sapiens, UniProt P10275, T878A)
Construct: host or cells: LNCaP human prostate cancer cells
Sequence (P10275 1-920 T878A): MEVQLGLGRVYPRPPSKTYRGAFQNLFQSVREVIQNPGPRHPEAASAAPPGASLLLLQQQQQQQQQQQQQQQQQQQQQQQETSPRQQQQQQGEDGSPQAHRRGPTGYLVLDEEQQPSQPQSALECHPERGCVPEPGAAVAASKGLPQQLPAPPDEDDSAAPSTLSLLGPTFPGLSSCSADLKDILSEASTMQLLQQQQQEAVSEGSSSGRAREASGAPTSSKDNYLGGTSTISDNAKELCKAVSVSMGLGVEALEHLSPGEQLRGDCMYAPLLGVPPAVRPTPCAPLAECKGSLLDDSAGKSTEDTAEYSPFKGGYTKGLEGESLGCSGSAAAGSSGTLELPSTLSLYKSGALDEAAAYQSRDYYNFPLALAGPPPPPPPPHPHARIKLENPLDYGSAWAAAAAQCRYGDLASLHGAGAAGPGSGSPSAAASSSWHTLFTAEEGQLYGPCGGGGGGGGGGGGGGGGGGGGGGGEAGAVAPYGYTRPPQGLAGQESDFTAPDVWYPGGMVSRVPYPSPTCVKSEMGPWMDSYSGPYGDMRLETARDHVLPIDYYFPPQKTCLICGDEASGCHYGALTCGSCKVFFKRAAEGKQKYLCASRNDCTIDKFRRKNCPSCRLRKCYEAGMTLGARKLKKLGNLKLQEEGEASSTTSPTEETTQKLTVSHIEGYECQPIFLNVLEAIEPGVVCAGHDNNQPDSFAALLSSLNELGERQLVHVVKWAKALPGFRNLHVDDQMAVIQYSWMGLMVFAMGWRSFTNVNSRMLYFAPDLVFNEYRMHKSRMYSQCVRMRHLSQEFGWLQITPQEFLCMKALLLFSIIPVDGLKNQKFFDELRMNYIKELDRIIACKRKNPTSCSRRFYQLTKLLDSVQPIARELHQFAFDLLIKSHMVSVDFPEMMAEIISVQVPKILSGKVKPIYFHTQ
procedure_text: Degradation activity on androgen receptor in LNCaP cells (AR ELISA)
Format: cell-based
test_context: 0.1 nM R1881, 24 hours, read-out: Max (maximum AR degradation rate)
Give the number; % is assumed, so skip it.

Field: example entries. Status: answers known.
molecule | observed
C[C@H]1CC2(CCN(c3ccc(C(=O)N4CCC(N5CCC(N6CCN(c7ccc(N8CCC(=O)NC8=O)cc7)CC6)CC5)CC4)cc3)CC2)CN1c1ccc(C#N)c(Cl)c1 | 86
C[C@H]1CC2(CCN(c3ccc(C(=O)N4CCC(CN5CCN(c6ccccc6NC6CCC(=O)NC6=O)CC5)CC4)cc3)CC2)CN1c1ccc(C#N)c(Cl)c1 (some centres unmarked) | 86
C[C@H]1CC2(CCN(c3ccc(C(=O)N4CCC(CN5CCN(c6cccc(NC7CCC(=O)NC7=O)c6)CC5)CC4)cc3)CC2)CN1c1ccc(C#N)c(Cl)c1 (some centres unmarked) | 98

Given C[C@H]1CC2(CCN(c3ccc(C(=O)N4CCC5(CC4)CC(N4CCN(c6ccc(N7CCC(=O)NC7=O)cc6)CC4)C5)cn3)CC2)CN1c1ccc(C#N)c(Cl)c1 , state its recorded Dmax. 95

Next: C[C@H]1CC2(CCN(c3ccc(C(=O)N4CCC5(CC4)CC(N4CCN(c6cccc(N7CCC(=O)NC7=O)c6)CC4)C5)cc3)CC2)CN1c1ccc(C#N)c(Cl)c1 88

====

tgt: androgen receptor (AR) (Homo sapiens, UniProt P10275, T878A)
Construct: host or cells: LNCaP human prostate cancer cells
procedure_text: Degradation activity on androgen receptor in LNCaP cells (AR ELISA)
Type: cell-based
test_context: 0.1 nM R1881, 24 hours, read-out: LNCaP DC50
This section presents molecules with their documented DC50 values.
Please reply with the bare figure in nM and do not write the unit itself.

Field: example entries. Status: answers known.
molecule | DC50 [nM]
C[C@H]1CC2(CCN(c3ccc(C(=O)N4CCC(CN5CCN(c6cccc(NC7CCC(=O)NC7=O)c6)CC5)CC4)cc3)CC2)CN1c1ccc(C#N)c(C(F)(F)F)c1 (some centres unmarked) | 17.1
C[C@H]1CC2(CCN(c3ccc(C(=O)N4CCC(CN5CCC(c6cccc(NC7CCC(=O)NC7=O)c6)CC5)CC4)nn3)CC2)CN1c1ccc(C#N)c(Cl)c1 (some centres unmarked) | 0.4
C[C@H]1CC2(CCN(c3ccc(C(=O)N4CCC(CN5CCN(c6ccc(C(=O)NC7CCC(=O)NC7=O)c(F)c6)CC5)CC4)cc3)CC2)CN1c1ccc(C#N)c(Cl)c1 (some centres unmarked) | 22.1
C[C@H]1CC2(CCN(c3ccc(C(=O)N4CCC5(CC4)CC(N4CCN(c6ccc(N7CCC(=O)NC7=O)cc6)CC4)C5)cc3F)CC2)CN1c1ccc(C#N)c(Cl)c1 | 4.2
C[C@H]1CC2(CCN(c3ccc(C(=O)N4CCC(N5CC(N6CCN(c7ccc(N8CCC(=O)NC8=O)cc7)CC6)C5)CC4)cc3)CC2)CN1c1ccc(C#N)c(Cl)c1 | 1
C[C@H]1CC2(CCN(c3ccc(C(=O)N4CCC5(CC4)CC(N4CCN(c6ccc(N7CCC(=O)NC7=O)cc6)CC4)C5)c(F)c3)CC2)CN1c1ccc(C#N)c(Cl)c1 | 8.7

# get_value(readout= DC50, system= androgen receptor (AR) (Homo sapiens, UniProt P10275, T878A)) for C[C@H]1CC2(CCN(c3ccc(C(=O)N4CCC(N5CCN(c6cccc(NC7CCC(=O)NC7=O)c6)CC5)CC4)cc3)CC2)CN1c1ccc(C#N)c(Cl)c1 (some centres unmarked) 2.5

// next record C[C@H]1CC2(CCN(c3ccc(C(=O)N4CCC(CN5CCN(c6ccc(C(=O)NC7CCC(=O)NC7=O)cc6)CC5)CC4)cc3)CC2)CN1c1ccc(C#N)c(Cl)c1 (some centres unmarked) 9.3

Now consider C[C@H]1CC2(CCN(c3ccc(C(=O)N4CCC5(CC4)CC(N4CCN(c6cccc(NC7CCC(=O)NC7=O)c6)CC4)C5)cc3F)CC2)CN1c1ccc(C#N)c(Cl)c1 (some centres unmarked) and answer again. 5.3

Ok, now C[C@H]1CC2(CCN(c3ccc(C(=O)N4CCC(CN5CCC(c6ccc(NC7CCC(=O)NC7=O)cc6)CC5)CC4)cc3)CC2)CN1c1ccc(C#N)c(Cl)c1 (some centres unmarked) 2.5

C[C@H]1CC2(CCN(c3ccc(C(=O)N4CCC(N5CCC(N6CCN(c7ccc(N8CCC(=O)NC8=O)cc7)CC6)CC5)CC4)cc3)CC2)CN1c1ccc(C#N)c(Cl)c1 ? 5.7

These measurements were taken from patent US20250129074A1.
